biological target: VR1 (Homo sapiens, UniProt Q8NER1); experiment: Calcium uptake assay, low pH (proton) stimulus; assay type: cell-based; parameters: expressed in transfected cells; host or cells: T-REx HEK 293 (Invitrogen), pcDNA5/TO vector; settings: HEK293; 0.3 μM compound; low pH agonist; HEK 293 cells expressing hVR1; read-out: Low pH % Inhib. @ 0.3 μM
Sequence (Q8NER1 whole entry): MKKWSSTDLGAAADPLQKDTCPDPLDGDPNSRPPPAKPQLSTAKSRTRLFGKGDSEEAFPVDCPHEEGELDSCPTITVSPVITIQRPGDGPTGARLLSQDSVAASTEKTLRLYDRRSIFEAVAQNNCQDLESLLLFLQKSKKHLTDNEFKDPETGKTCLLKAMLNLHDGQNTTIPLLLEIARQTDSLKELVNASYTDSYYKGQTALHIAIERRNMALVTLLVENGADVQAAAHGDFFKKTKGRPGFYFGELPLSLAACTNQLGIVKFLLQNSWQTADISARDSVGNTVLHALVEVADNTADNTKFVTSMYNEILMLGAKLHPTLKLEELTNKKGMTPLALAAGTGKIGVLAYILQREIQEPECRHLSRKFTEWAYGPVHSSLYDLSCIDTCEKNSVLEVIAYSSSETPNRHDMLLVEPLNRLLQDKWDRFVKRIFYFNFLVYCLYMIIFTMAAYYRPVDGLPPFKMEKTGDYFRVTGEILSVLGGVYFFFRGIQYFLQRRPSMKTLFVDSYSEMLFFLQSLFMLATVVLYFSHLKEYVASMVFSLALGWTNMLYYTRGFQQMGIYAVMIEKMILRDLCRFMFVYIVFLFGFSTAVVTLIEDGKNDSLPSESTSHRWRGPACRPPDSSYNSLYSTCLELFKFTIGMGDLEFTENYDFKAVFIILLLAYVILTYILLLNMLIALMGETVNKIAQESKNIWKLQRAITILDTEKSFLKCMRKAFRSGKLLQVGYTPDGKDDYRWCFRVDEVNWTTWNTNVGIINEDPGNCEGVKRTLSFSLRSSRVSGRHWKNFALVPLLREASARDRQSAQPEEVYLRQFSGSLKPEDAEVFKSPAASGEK
Measured metric: inhibition at 0.3 µM (%)
Please state the figure in %; there is no need to write the unit.

Some compounds with known inhibition at 0.3 µM results, for comparison:
| Smiles structure | Measured metric | Value reported |
| --- | --- | --- |
| C/C(=C\C(F)(F)F)c1ccc(C(=O)Nc2ccc3c(c2)OCCO3)cc1 | inhibition at 0.3 µM | 94 |
| Cn1ccc2cc(NC(=O)c3ccc(C#CC(C)(C)C)nc3)ccc21 | inhibition at 0.3 µM | 105 |
| O=C(Nc1ccc2c(c1)OC[C@H](CO)N2)c1ccc(C#CC2CC2)cc1F | inhibition at 0.3 µM | 112 |
| CC(C)(C)C#Cc1ccc(C(=O)Nc2ccc3c(c2)OCO3)cc1 | inhibition at 0.3 µM | 102 |

May I ask what inhibition at 0.3 µM has been recorded for `Cc1cc2c(NC(=O)c3ccc(/C=C/C(F)(F)F)cc3C)cccc2cn1` ?
86

###

molecular target: VR1 (Homo sapiens, UniProt Q8NER1); experiment: Calcium uptake assay, low pH (proton) stimulus; format: cell-based; set-up: expressed in transfected cells; host or cells: T-REx HEK 293 (Invitrogen), pcDNA5/TO vector; settings: HEK293; 0.3 μM compound; low pH agonist; HEK 293 cells expressing hVR1; read-out: Low pH % Inhib. @ 0.3 μM
Measured metric: inhibition at 0.3 µM (%)
Please state the figure in %; there is no need to write the unit.

| Molecule | Measured metric | Value reported |
| --- | --- | --- |
| O=C(Nc1ccc2c(c1)OCC(CO)O2)c1ccc(C#CC2CC2)cc1F (centres unmarked) | inhibition at 0.3 µM | 75 |
| CC(C)(C)C#Cc1ccc(C(=O)Nc2ccc3c(c2)OC[C@H](CO)N3)c(Cl)c1 | inhibition at 0.3 µM | 103 |
| Cc1cc(/C=C/C(F)(F)F)ccc1C(=O)Nc1ccc2c(c1)OCC(CO)O2 (centres unmarked) | inhibition at 0.3 µM | 92 |

Give the reported inhibition at 0.3 µM for O=C(Nc1ccc2c(c1)OCC(CO)O2)c1ccc(C#CC2CC2)cc1 (centres unmarked) (system: VR1 (Homo sapiens, UniProt Q8NER1)).
98

Give the reported inhibition at 0.3 µM for Cc1cc(C#CC(C)(C)C)ccc1C(=O)Nc1ccc2c(c1)OCC(CO)N2 (centres unmarked) (system: VR1 (Homo sapiens, UniProt Q8NER1)).
107

###

biological target: VR1 (Homo sapiens, UniProt Q8NER1); assay: Calcium uptake assay, low pH (proton) stimulus; type: cell-based; design: expressed in transfected cells; host or cells: T-REx HEK 293 (Invitrogen), pcDNA5/TO vector; details: HEK293; 0.3 μM compound; low pH agonist; HEK 293 cells expressing hVR1; read-out: Low pH % Inhib. @ 0.3 μM
Readings of inhibition at 0.3 µM for the listed molecules
Please state the figure in %; there is no need to write the unit.

Some molecules with known inhibition at 0.3 µM results, for comparison:
| Molecule | Value reported |
| --- | --- |
| CC(C)(C)C#Cc1ccc(C(=O)Nc2ccc3c(c2)NCC3(C)C)cc1 [Compound 69] | 103 |
| O=C(Nc1ccc2c(c1)OCCO2)c1ccc(C#CC2CC2)cc1 [Compound 49] | 96 |
| CN1CCOc2cc(NC(=O)c3ccc(/C=C/C(F)(F)F)cc3)ccc21 [Compound 73] | 94 |

Okay, now this molecule:
May I ask what inhibition at 0.3 µM has been recorded for O=C(Nc1ccc2nccnc2c1)c1ccc(/C=C/C(F)(F)F)cc1 [Compound 115] ?
90

Each recorded value in this set is attributed to patent US20080300243A1.
